# Test system: TNK1;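 also: KINOMEscan kinase panel screen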
# measurement parameters: concentration: 1 μM, replicates: in singlicate; n = 1
readout name: %Inh (%)

compound	recorded value
c1ccc(-c2cc(-c3c[nH]nc3-c3ccccn3)ccn2)cc1 [GW576604]	0
N#Cc1ccc(-c2cc(-c3c[nH]nc3-c3ccccn3)ccn2)cc1 [GW693028]	0
O=c1cc(N2CCOCC2)nc2n(Cc3cccc(F)c3)ccn12 [GSK2297430]	0
Cn1cc(-c2ccc3c(c2)CCN3C(=O)Cc2ccccc2Cl)c2c(N)ncnc21 [GSK2608885]	100
NS(=O)(=O)c1cccc(-c2ccc3nccc(-c4cccc(S(N)(=O)=O)c4)c3c2)c1 [GW867253]	0
CC(C)Oc1ccc2c(-c3ccnc(Nc4ccc(N5CCN(C)CC5)cc4)n3)cnn2n1 [GW696155]	60
Fc1ccc(-c2ncn(CCCN3CCOCC3)c2-c2cccnc2)cc1 [SB-211743]	14
Cn1ccc2ncnc(Oc3ccc(NC(=O)Nc4ccncc4)c(Cl)c3)c21	0
COc1cc2c(cc1OC[C@@H](O)CO)ncc1c3ccc(C#N)cc3[nH]c21	36
CN(C1=C(c2ccccc2)C(=O)NC1=O)c1ccccc1 [SB-334860]	7
C[C@@H](Oc1cc(-n2cnc3ccc(NC(=O)NC(C)(C)C)cc32)sc1C(N)=O)c1ccccc1Cl [GSK346294]	0
COC(=O)Nc1nc2cc(Oc3ccc(NC(=O)Nc4cc(F)ccc4F)cc3)ccc2[nH]1.Cl [GW701424]	0
O=c1cc(N2CCOCC2)nc2n(Cc3cccc4ccccc34)ccn12 [GSK2333389]	0
Cc1ccc(C(=O)NCC(N)=O)cc1-n1c(C)cc(OCc2ccc(F)cc2F)c(Br)c1=O	0
COc1cc2ncn(-c3cc(OCc4sccc4Cl)c(C(N)=O)s3)c2cc1OC [GSK448459]	0
Cc1cccc(Cn2ccn3c(=O)cc(N4CCOCC4)nc23)c1 [GSK2297542]	0
